Assay: Inhibition of Shigella sonnei UIH-1 beta-lactamase CTX-M-64 by spectrophotometry in presence of 100 uM nitrocefin
PARAMETER_MEASURED: pIC50
Answers are plain numbers, as −log10 of the molar value.

Param item = O=C(O)[C@H]1/C(=C/CO)O[C@@H]2CC(=O)N21 [CLAVULANIC ACID] ; retrieve measured pIC50.
8.00

----------
System: Shigella sonnei
Conditions: UIH-1
Description: Ratio of Kcat to km for Shigella sonnei UIH-1 CTX-M-64
PARAMETER_MEASURED: kcat/Km (×10⁶ /M/s)
Give bare numbers, in ×10⁶ /M/s.

compound="CC1(C)S[C@@H]2[C@H](NC(=O)[C@H](N)c3ccccc3)C(=O)N2[C@H]1C(=O)O [AMPICILLIN]" value_reported=1.9
compound=CC(=O)OCC1=C(C(=O)O)N2C(=O)[C@@H](NC(=O)Cc3cccs3)[C@H]2SC1 value_reported=4.9

The record that follows has no kcat/Km shown yet.
Param item = CO/N=C(\C(=O)N[C@@H]1C(=O)N2C(C(=O)O)=C(COC(C)=O)CS[C@H]12)c1csc(N)n1 [CEFOTAXIME] ; retrieve measured kcat/Km.
1.9
